tested on: NCI/ADR-RES; assay: NCI tumour cell line growth inhibition, 48 h
Calls of active or inactive are those of the source. Rule as the data show it: active = GI50 up to about 1.1 µM and inactive = higher. Non-standard residues stand in square brackets, D forms with d. Residues, ends and D or L forms follow the SMILES beside them. Ava = NCCCCC(=O)O; Mpa = O=C(O)CCS
MEASURED_PARAMETER: GI50

{"MOLECULE": "CS(=O)(=O)OCOS(C)(=O)=O", "RESULT": "> 100 µM (inactive)"}
{"MOLECULE": "CC(C)=CCC/C(C)=C/COc1c2ccoc2cc2oc(=O)ccc12", "RESULT": "35 µM (inactive)"}
{"MOLECULE": "O=c1[nH]c(=O)n(Cc2ccccc2CO)cc1Sc1ccccc1", "RESULT": "26.8 µM (inactive)"}
{"MOLECULE": "C=C1C(=O)O[C@H]2[C@H]3O[C@@H](C[C@@H]12)[C@](C)(O)CC[C@@H]1O[C@@]1(C)CCC[C@H]3C", "RESULT": "26.9 µM (inactive)"}
{"MOLECULE": "CCOC(=O)c1c(N2CCCC2)[nH]c(=O)c(C(c2ccc(OC)cc2)c2c(O)c(C(=O)OCC)c(N3CCCC3)[nH]c2=O)c1O", "RESULT": "> 100 µM (inactive)"}
{"MOLECULE": "Cc1nc2ccccc2n1C(=O)c1c(F)c(F)c(F)c(F)c1F", "RESULT": "17.5 µM (inactive)"}
{"MOLECULE": "O=P1(O)c2ccccc2CSCc2ccccc21", "RESULT": "> 100 µM (inactive)"}
{"MOLECULE": "O=C(NCCN1CCCCC1)c1cccc(I)c1", "RESULT": "> 100 µM (inactive)"}
{"MOLECULE": "COc1ccc(N2C(=O)C3c4[nH]c5ccccc5c4C4C(C)CCCC4C3C2=O)cc1 (centres undefined)", "RESULT": "14.9 µM (inactive)"}
{"MOLECULE": "C/C(=N\\O)c1cccc(Nc2nc3ccccc3c3occc23)c1", "RESULT": "13.1 µM (inactive)"}
{"MOLECULE": "CC(NC(=O)CCS)C(=O)NC(C)C(=O)NC(Cc1c[nH]c2ccccc12)C(=O)NC(Cc1c[nH]cn1)C(=O)NC(CO)C(=O)NC(Cc1c[nH]c2ccccc12)C(=O)NCCCCC(=O)NC(C)C(=O)NC(CCC(N)=O)C(=O)NC(CCCCN)C(=O)NC(C)C(=O)NC(CCCNC(=N)N)C(=O)NC(CCCCN)C(N)=O (centres undefined) ([Mpa]AAWHSW[Ava]AQKARK-NH2; configuration not given here)", "RESULT": "> 100 µM (inactive)"}
{"MOLECULE": "Cc1ccc2c(c1)[nH]c(=S)n2C=C(C(N)=O)C(N)=O", "RESULT": "> 100 µM (inactive)"}
{"MOLECULE": "Cc1cc(C)nc(NCCC(O)(P(=O)(O)O)P(=O)(O)O)n1", "RESULT": "> 100 µM (inactive)"}
{"MOLECULE": "CCC(C)C(Nc1c2ccccc2nc2c(C(=O)NCCN(C)C)cccc12)C(=O)O (centres undefined)", "RESULT": "10.4 µM (inactive)"}
{"MOLECULE": "CNC(=O)N(CCC#N)CCN(C(=O)N(C)C)c1ccccc1", "RESULT": "> 100 µM (inactive)"}
{"MOLECULE": "CCOC(=O)c1cc2cc(N(C(C)=O)C(C)=O)ccc2s1", "RESULT": "33.7 µM (inactive)"}
{"MOLECULE": "O=C1NC(=O)C(COCc2ccccc2)C2=C1SCCC2 (centres undefined)", "RESULT": "> 100 µM (inactive)"}
{"MOLECULE": "CN(C)CN1CSC(=S)N(CN(C)C)C1", "RESULT": "> 100 µM (inactive)"}
{"MOLECULE": "CN(N)/N=N/c1[nH]cnc1C(N)=O", "RESULT": "5.35 µM (inactive)"}
